A collection of sequences and their measured switch fluorescence ratio
Test system: ATP;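 also: ATP exposure 15 min at 22 °C before imaging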
Experiment: switch fluorescence ratio, 500 uM ATP over buffer (Cy3 cluster intensity, sum of 5 cycles each) (fold (ratio)); higher = stronger signal-on switching upon ATP binding; sequences stand for … in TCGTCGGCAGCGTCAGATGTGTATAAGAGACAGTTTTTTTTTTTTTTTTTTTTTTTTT…TC
Conditions: aptamer strand: ATP DNA aptamer (quencher-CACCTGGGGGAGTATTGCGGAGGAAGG + anchor), 100 nM annealed; ATP concentration: 500 uM
# output: bare number, no unit

Example cases with answers are listed next.
>>> readout_value("CGAGTCCAGG")
6.48
>>> readout_value("AAGGGGTGGA")
1.01
>>> readout_value("TTGTGAACTT")
0.979
>>> readout_value("AATGGCAGGA")
0.998
>>> readout_value("AGCCTTTATC")
1.04
>>> readout_value("GGTATCAGGA")
0.978
>>> readout_value("GTTCGACTGT")
1.02
>>> readout_value("GTTCTTTTTT")
0.951

Summary line: `ATTCAGGTTC` , ATP, reported switch fluorescence ratio = 0.996

Summary line: `TCCGATGCGT` , ATP, reported switch fluorescence ratio = 2.97

Summary line: `ACTTGTTCAT` , ATP, reported switch fluorescence ratio = 1.01

Summary line: `GGCGATCATA` , ATP, reported switch fluorescence ratio = 0.984

Summary line: `TTGGTGGGAA` , ATP, reported switch fluorescence ratio = 1

Summary line: `GGGGGAGTGT` , ATP, reported switch fluorescence ratio = 0.985

Summary line: `GATCAGGGGT` , ATP, reported switch fluorescence ratio = 1.06

Summary line: `CAGTAGGCGC` , ATP, reported switch fluorescence ratio = 1.01

Summary line: `TTAACTAGGC` , ATP, reported switch fluorescence ratio = 0.989

Summary line: `CCGGTCTTGA` , ATP, reported switch fluorescence ratio = 1.01

Summary line: `AGCTGCACAT` , ATP, reported switch fluorescence ratio = 1.05

###

Tested on: ATP;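 also: ATP exposure 15 min at 22 °C before imaging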
Test: switch fluorescence ratio, 500 uM ATP over buffer (Cy3 cluster intensity, sum of 5 cycles each) (fold (ratio)); higher = stronger signal-on switching upon ATP binding; sequences stand for … in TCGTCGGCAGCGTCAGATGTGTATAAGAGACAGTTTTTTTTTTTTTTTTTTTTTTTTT…TC
Details: aptamer strand: ATP DNA aptamer (quencher-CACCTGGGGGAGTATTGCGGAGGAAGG + anchor), 100 nM annealed; ATP concentration: 500 uM
Parameter: switch fluorescence ratio
# output: bare number, no unit

Example cases with answers are listed next.
>>> readout_value("CCGTTGTGCG")
1.02
>>> readout_value("TTAGGCCTTT")
0.972
>>> readout_value("AGGGGAAGGG")
1.02
>>> readout_value("GGAATGGTTT")
0.987
>>> readout_value("GTTAGTCTGT")
0.991

Summary line: `CCTGGCGTCG` , ATP, reported switch fluorescence ratio = 1.01

Summary line: `CGAGCGGGGG` , ATP, reported switch fluorescence ratio = 1.01

Summary line: `CGTCAGGTGT` , ATP, reported switch fluorescence ratio = 3.71

Summary line: `GCTGCGAATT` , ATP, reported switch fluorescence ratio = 1.02

Summary line: `GTGGTGATGT` , ATP, reported switch fluorescence ratio = 1.02
